# credit: PubChem BioAssay (NCI)

Below is a list of entries, each paired with its recorded TGI value.
System: LOX IMVI melanoma
Assay: NCI tumour cell line growth inhibition, 48 h
// note: answer is a bare numeric in µM

// query I am curious: what TGI value has been reported for `O=C1C(=O)c2ccccc2C(O)=C1CCCc1ccc(C2CCCC2)cc1` ?
// result 9.22

// query Also need CC(=O)[CH-]C(=O)c1ccccc1.CC(=O)[CH-]C(=O)c1ccccc1.CC1(C)OCC(C2OC3OC(C)(C)OC3C2[O-])O1.CC1(C)OCC(C2OC3OC(C)(C)OC3C2[O-])O1.[Ti+4] (stereo not drawn) , thanks.
// result 34.2

// query Record: `CCN(CC)CCOc1ccc(/C=C2\C[C@H]3[C@H]4CC=C5C[C@@H](O)CC[C@]5(C)[C@H]4CC[C@]3(C)[C@H]2O)cc1OC`
// result 15.3

// query CCC(C)[C@H](NC(=O)NC(=O)NC(=O)CI)C(=O)OC (stereo partly drawn) , same question.
// result 3.27

// query Entry to check: C=C1CCC2C3(C)COC(c4c(OC)cccc4OC)OC3CCC2(C)C1C/C=C1/C(=O)OCC1O (stereo not drawn)
// result 3.25

// query Now try `CCCCCCCCCCC/C=C\C[C@H](O)C/C=C1/C(=O)C=C[C@@H]1C/C=C\CCCC(=O)OC` .
// result 1.05

* * *

Test system: RXF 393 renal
Test: NCI tumour cell line growth inhibition, 48 h
readout: TGI (µM)
State just the number; it will be interpreted in µM.

Solved entries:
// query What TGI value was documented for this compound, `COC(=O)C[CH2][Ge]([CH3])([CH3])[S]c1ccccc1` ?
// result 23.3

// query Same thing, different compound: Cc1cc(C)nc(SCC(=O)OC2CC(C)CCC2C(C)C)n1 (centres undefined)
// result 32

Next compound, TGI to be filled in.
// query Quick one: TGI for `Cc1ccc(S(=O)(=O)N2c3ccccc3[C@H]3CCC=C[C@H]32)cc1` ?
// result 19

* * *

Each record here notes measured TGI.
System: NCI-H522 lung
Experiment: NCI tumour cell line growth inhibition, 48 h

// query Lookup: TGI / NCI-H522 lung / `O=C1CCCC(=O)N1n1c(Cc2ccccc2)n[nH]c1=O`
// result > 100 µM

// query What about C=C1CCC2C3(C)COC(c4c(OC)cccc4OC)OC3CCC2(C)C1C/C=C1/C(=O)OCC1O (stereo not given) ?
// result 5.01 µM

// query Now the compound `CCCCCCCNC(P(=O)(O)O)P(=O)(O)O`
// result > 100 µM

// query Next entry: COC(=O)C(Cc1ccccc1)NP(=O)(O)OCC1OC(n2cc(I)c(=O)[nH]c2=O)CC1O (stereo not given)
// result > 100 µM

Others:
// query What is its TGI for NCI-H522 lung? Entry: COc1cccc(C2ON=C(c3ccccc3)N2C23CC4CC(CC(C4)C2)C3)c1 (stereo not given)
// result > 10 µM

// query How about this compound: `COc1cccc2c3ccccc3c3nc[nH]c3c12`
// result > 70.1 µM

// query Note, next up: `N#Cc1ccsc1NC(=O)COC(=O)c1cccc(S(=O)(=O)N2CCc3ccccc32)c1`
// result > 100 µM

// query Same again, this time with COc1cc2c(cc1OC)CN1CCCc3cc(OC)c(OC)cc3C1C2 (stereo not given)
// result > 100 µM

// query Repeat for the following compound: `COc1cc2nc(-c3ccc(Cl)cc3)cc(OCCCN3CCCC3)c2cc1OC`
// result 8.89 µM

// query Now consider `CC(C)OP(=O)(OC(C)C)c1ccc2c(c1)OCCOCCOCCOCCO2` .
// result > 100 µM
